Every entry's value here was drawn from patent US20210246166A1.

Target: T1, recombinant rat MASP1 active protease (amino acids 302-704, C-terminal His Tag) (rat, UniProt Q8CHN8 302-704)
T1 sequence: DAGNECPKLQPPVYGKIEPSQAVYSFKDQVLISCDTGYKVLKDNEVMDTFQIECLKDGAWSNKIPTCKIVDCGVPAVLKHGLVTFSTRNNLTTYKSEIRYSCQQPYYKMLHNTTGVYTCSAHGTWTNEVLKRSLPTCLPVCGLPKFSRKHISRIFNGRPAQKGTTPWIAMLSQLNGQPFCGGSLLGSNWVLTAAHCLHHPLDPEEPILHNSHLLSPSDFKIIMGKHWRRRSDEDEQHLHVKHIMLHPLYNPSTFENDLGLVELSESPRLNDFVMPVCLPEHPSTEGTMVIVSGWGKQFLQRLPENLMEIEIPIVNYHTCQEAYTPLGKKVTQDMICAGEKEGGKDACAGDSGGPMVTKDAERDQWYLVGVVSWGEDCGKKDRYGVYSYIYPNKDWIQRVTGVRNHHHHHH
Assay: cell-based or functional assay
Numbered stars: 1 amine (or outer) side, 2 acyl side, 3 side chain; on linkers, the order of the positions; unused ones are H or OH. Bridge positions count the residues as written; N and C are the ends. Square brackets hold non-standard residues; d marks the D form. Ends that are not written are not given here. Phe(2,3-F2) = (2S)-3-(2,3-difluorophenyl)-2-aminopropanoic acid, O=C([C@H](Cc1cccc(F)c1F)N[*:1])[*:2]; Oic = O=C(O)[C@@H]1C[C@@H]2CCCC[C@@H]2N1; Phe(2-Cl) = N[C@@H](Cc1ccccc1Cl)C(=O)O; tBuAla = CC(C)(C)C[C@H](N)C(=O)O; Pen = CC(C)(S)[C@H](N)C(=O)O; NMeC = CN[C@@H](CS)C(=O)O; NMeA = CN[C@@H](C)C(=O)O; Sar = CNCC(=O)O
List of rat MASP1 IC50 values.
Express your answer in nM, writing the number without its unit.

{"BINDER": "AICSRS[Phe(2-Cl)]PPI[NMeC]IPD-NH2 (disulfide 3-11; N-terminus assumed; SMILES CC[C@H](C)[C@H](NC(=O)[C@H](C)N)C(=O)N[C@H]1CSSC[C@@H](C(=O)N[C@H](C(=O)N2CCC[C@H]2C(=O)N[C@@H](CC(=O)O)C(N)=O)[C@@H](C)CC)N(C)C(=O)[C@H]([C@@H](C)CC)NC(=O)[C@@H]2CCCN2C(=O)[C@@H]2CCCN2C(=O)[C@H](Cc2ccccc2Cl)NC(=O)[C@H](CO)NC(=O)[C@H](CCCNC(=N)N)NC(=O)[C@H](CO)NC1=O) [Example 238: AIC+SRS-((2-Chloro)F)-PPI-((N-Me)C)+IPD-NH2]", "ENDPOINT UNIT": "nM", "rat MASP1 IC50": 150}
{"BINDER": "[Sar]ICSRS[Phe(2,3-F2)]P[Oic]I[Pen]IP-NH2 (disulfide 3-11; N-terminus assumed; SMILES CC[C@H](C)[C@H](NC(=O)CNC)C(=O)N[C@H]1CSSC(C)(C)[C@@H](C(=O)N[C@H](C(=O)N2CCC[C@H]2C(N)=O)[C@@H](C)CC)NC(=O)[C@H]([C@@H](C)CC)NC(=O)[C@@H]2C[C@@H]3CCCC[C@@H]3N2C(=O)[C@@H]2CCCN2C(=O)[C@H](Cc2cccc(F)c2F)NC(=O)[C@H](CO)NC(=O)[C@H](CCCNC(=N)N)NC(=O)[C@H](CO)NC1=O)", "ENDPOINT UNIT": "nM", "rat MASP1 IC50": 410}
{"BINDER": "RICSRS[tBuAla]PPI[NMeC]I-NH2 (disulfide 3-11; N-terminus assumed; SMILES CC[C@H](C)[C@H](NC(=O)[C@@H]1CSSC[C@H](NC(=O)[C@@H](NC(=O)[C@@H](N)CCCNC(=N)N)[C@@H](C)CC)C(=O)N[C@@H](CO)C(=O)N[C@@H](CCCNC(=N)N)C(=O)N[C@@H](CO)C(=O)N[C@@H](CC(C)(C)C)C(=O)N2CCC[C@H]2C(=O)N2CCC[C@H]2C(=O)N[C@@H]([C@@H](C)CC)C(=O)N1C)C(N)=O) [Example 38: RIC+SRS-((tBu)A)-PPI-((N-Me)C)+I-NH2]", "ENDPOINT UNIT": "nM", "rat MASP1 IC50": 12}

Next item in the queue.
Data request: What value of rat MASP1 IC50 has been recorded for this entry: [NMeA]ICSRS[tBuAla]PPI[NMeC]IPD-NH2 (disulfide 3-11; N-terminus assumed; SMILES CC[C@H](C)[C@H](NC(=O)[C@H](C)NC)C(=O)N[C@H]1CSSC[C@@H](C(=O)N[C@H](C(=O)N2CCC[C@H]2C(=O)N[C@@H](CC(=O)O)C(N)=O)[C@@H](C)CC)N(C)C(=O)[C@H]([C@@H](C)CC)NC(=O)[C@@H]2CCCN2C(=O)[C@@H]2CCCN2C(=O)[C@H](CC(C)(C)C)NC(=O)[C@H](CO)NC(=O)[C@H](CCCNC(=N)N)NC(=O)[C@H](CO)NC1=O) [Example 175: ((N-Me)A)-IC+SRS-((tBu)A)-PPI-((N-Me)C)+IPD-NH2]
Data returned: 28
